Hey, just so you know, these numbers are from patent US9951040B2.

# Measured On: UniProt:P42336
# Protocol Summary: PI3K-α assay (ADP-Glo enzyme inhibition)
# Type: biochemical
# Test Context: at 500 nm; read-out: In vitro PI3K α % of inhibition
I'd be grateful if you could share measured inhibition at 0.5 µM for these entries.

Endpoint output: inhibition at 0.5 µM of O=C(N(C(=O)C(F)(F)F)c1nc(N2CCOCC2)nc(N2CCC(Oc3ccccc3)CC2)n1)C(F)(F)F [1A12] . Value?
50 to 70%

Return reported inhibition at 0.5 µM; argument: Fc1ccc(N(c2ccc(Br)cc2)C2CCN(c3nc(N4CCOCC4)nc(-n4c(C(F)F)nc5ccccc54)n3)CC2)cc1 [1B42]
> 70%

Requested field: inhibition at 0.5 µM. Item: FC(F)c1nc2ccccc2n1-c1nc(N2CCOCC2)nc(N2CCC(Nc3ccc(Br)cc3)CC2)n1 [1B25]
> 70%

Could you share which inhibition at 0.5 µM value was measured for Cc1ccc(OC2CCN(c3nc(N4CCOCC4)nc(-n4cnc5cc(F)ccc54)n3)CC2)cc1 [1B13] ?
50 to 70%

Consider the compound shown here: Fc1ccccc1OC1CCN(c2nc(N3CCOCC3)nc(-n3cnc4ccccc43)n2)CC1 [1B18] What is its recorded inhibition at 0.5 µM?
> 70%

Which inhibition at 0.5 µM value is on record for O=C(N(c1ccccc1)c1nc(N2CCOCC2)nc(N2CCC(Oc3ccc(C(F)(F)F)cc3)CC2)n1)C(F)(F)F [1A7] ?
50 to 70%

I'd like to know its inhibition at 0.5 µM. The compound in question is CN(c1ccc(F)cc1)c1nc(N2CCOCC2)nc(N2CCC(Oc3ccc(F)cc3)CC2)n1 [1A3]
> 70%

Using the record for Fc1ccc(NC2CCN(c3nc(N4CCOCC4)nc(-n4cnc5ccccc54)n3)CC2)cc1 [1B37] , report its inhibition at 0.5 µM.
> 70%

inhibition at 0.5 µM lookup needed for O=C(N(c1ccccc1)c1nc(N2CCOCC2)nc(N2CCC(Oc3ccccc3)CC2)n1)C(F)(F)F [1A4] , thanks.
50 to 70%

Reported inhibition at 0.5 µM, compound CN(c1ccccc1)c1nc(N2CCOCC2)nc(N2CCC(Oc3ccccc3F)CC2)n1 [1A2] : ____
50 to 70%

Param item = FC(F)c1nc2ccccc2n1-c1nc(N2CCOCC2)nc(N2CCC(Oc3ccccc3C(F)(F)F)CC2)n1 [1B4] ; retrieve measured inhibition at 0.5 µM.
> 70%

// lookup inhibition at 0.5 µM for FC(F)(F)c1ccccc1NC1CCN(c2nc(N3CCOCC3)nc(-n3cnc4ccccc43)n2)CC1 [1B40]
50 to 70%

Name the recorded inhibition at 0.5 µM for FC(F)(F)c1ccc(OC2CCN(c3nc(N4CCOCC4)nc(-n4cnc5ccccc54)n3)CC2)cc1 [1B15] .
> 70%

For the compound FC(F)c1nc2ccccc2n1-c1nc(N2CCOCC2)nc(N2CCC(Nc3ccc(OC(F)(F)F)cc3)CC2)n1 [1B23] , what inhibition at 0.5 µM is on record?
> 70%

Sample CN(C)c1nc(N2CCOCC2)nc(N2CCC(Oc3ccc(F)cc3)CC2)n1 [1A17] — what was its inhibition at 0.5 µM?
50 to 70%

Data request, read-out inhibition at 0.5 µM, for Fc1ccc(OC2CCN(c3nc(N4CCOCC4)nc(-n4c(C(F)F)nc5ccccc54)n3)CC2)cc1 [1B1]
> 70%

Endpoint output: inhibition at 0.5 µM of FC(F)c1nc2ccccc2n1-c1nc(N2CCOCC2)nc(N2CCC(Oc3ccc(Cl)cc3)CC2)n1 [1B5] . Value?
50 to 70%

State the recorded inhibition at 0.5 µM for this entry: FC(F)c1nc2ccccc2n1-c1nc(N2CCOCC2)nc(N2CCC(Oc3ccccc3Cl)CC2)n1 [1B7]
50 to 70%

Can you look up the measured inhibition at 0.5 µM of Fc1ccc(N(c2ccncc2C(F)(F)F)C2CCN(c3nc(N4CCOCC4)nc(-n4c(C(F)F)nc5ccccc54)n3)CC2)cc1 [1B45] for me?
50 to 70%

Quick one: inhibition at 0.5 µM for Fc1ccccc1NC1CCN(c2nc(N3CCOCC3)nc(-n3cnc4ccccc43)n2)CC1 [1B38] ?
50 to 70%

# get_value(readout='inhibition at 0.5 µM', item= COc1ccc(OC2CCN(c3nc(N4CCOCC4)nc(-n4c(C(F)F)nc5ccccc54)n3)CC2)cc1 [1B2] )
50 to 70%

Query (compound): O=C(N(c1ccccc1)c1nc(N2CCOCC2)nc(N2CCC(Oc3ccc(OC(F)(F)F)cc3)CC2)n1)C(F)(F)F [1A9] ; field requested: inhibition at 0.5 µM
> 70%

Field request: inhibition at 0.5 µM | item: Fc1ccc(OC2CCN(c3nc(N4CCOCC4)nc(-n4cnc5ccccc54)n3)CC2)cc1 [1B17]
50 to 70%

Recorded inhibition at 0.5 µM of Fc1ccc(NC2CCN(c3nc(N4CCOCC4)nc(-n4c(C(F)F)cc5ccccc54)n3)CC2)cc1 [1B46] , please.
50 to 70%

Report inhibition at 0.5 µM for Fc1ccc(N(c2ccc(C(F)(F)F)cc2)C2CCN(c3nc(N4CCOCC4)nc(-n4c(C(F)F)nc5ccccc54)n3)CC2)cc1 [1B43] please.
> 70%

Look up inhibition at 0.5 µM: FC(F)(F)Oc1ccc(OC2CCN(c3nc(N4CCOCC4)nc(N(c4ccccc4)c4ccccc4)n3)CC2)cc1 [1A20]
50 to 70%

What value of inhibition at 0.5 µM has been reported for the following compound? O=C(N(c1ccc(F)cc1)c1nc(N2CCOCC2)nc(N2CCC(Oc3ccccc3)CC2)n1)C(F)(F)F [1A5]
> 70%

Reported inhibition at 0.5 µM, compound FC(F)c1cc2ccccc2n1-c1nc(N2CCOCC2)nc(N2CCC(Nc3ccc(OC(F)(F)F)cc3)CC2)n1 [1B48] : ____
50 to 70%

Suppose we examine the compound FC(F)c1nc2ccccc2n1-c1nc(N2CCOCC2)nc(N2CCC(Nc3ccc(Cl)c(Cl)c3)CC2)n1 [1B26] ; what inhibition at 0.5 µM value has been reported?
> 70%

Can you look up the measured inhibition at 0.5 µM of FC(F)c1nc2ccccc2n1-c1nc(N2CCOCC2)nc(N2CCC(Oc3ccc(OC(F)(F)F)cc3)CC2)n1 [1B3] for me?
50 to 70%

GET /values?readout=inhibition at 0.5 µM&item= FC(F)c1nc2ccccc2n1-c1nc(N2CCOCC2)nc(N2CCC(Nc3ccc(C(F)(F)F)cc3)CC2)n1 [1B22]
50 to 70%

So what does the record say about inhibition at 0.5 µM for Cc1ccc(OC2CCN(c3nc(N4CCOCC4)nc(N(C(=O)C(F)(F)F)c4ccccc4)n3)CC2)cc1 [1A8] ?
> 70%

====

# Measured On: PI3K alpha (Homo sapiens)
# Sequence (P42336 whole entry, species assumed): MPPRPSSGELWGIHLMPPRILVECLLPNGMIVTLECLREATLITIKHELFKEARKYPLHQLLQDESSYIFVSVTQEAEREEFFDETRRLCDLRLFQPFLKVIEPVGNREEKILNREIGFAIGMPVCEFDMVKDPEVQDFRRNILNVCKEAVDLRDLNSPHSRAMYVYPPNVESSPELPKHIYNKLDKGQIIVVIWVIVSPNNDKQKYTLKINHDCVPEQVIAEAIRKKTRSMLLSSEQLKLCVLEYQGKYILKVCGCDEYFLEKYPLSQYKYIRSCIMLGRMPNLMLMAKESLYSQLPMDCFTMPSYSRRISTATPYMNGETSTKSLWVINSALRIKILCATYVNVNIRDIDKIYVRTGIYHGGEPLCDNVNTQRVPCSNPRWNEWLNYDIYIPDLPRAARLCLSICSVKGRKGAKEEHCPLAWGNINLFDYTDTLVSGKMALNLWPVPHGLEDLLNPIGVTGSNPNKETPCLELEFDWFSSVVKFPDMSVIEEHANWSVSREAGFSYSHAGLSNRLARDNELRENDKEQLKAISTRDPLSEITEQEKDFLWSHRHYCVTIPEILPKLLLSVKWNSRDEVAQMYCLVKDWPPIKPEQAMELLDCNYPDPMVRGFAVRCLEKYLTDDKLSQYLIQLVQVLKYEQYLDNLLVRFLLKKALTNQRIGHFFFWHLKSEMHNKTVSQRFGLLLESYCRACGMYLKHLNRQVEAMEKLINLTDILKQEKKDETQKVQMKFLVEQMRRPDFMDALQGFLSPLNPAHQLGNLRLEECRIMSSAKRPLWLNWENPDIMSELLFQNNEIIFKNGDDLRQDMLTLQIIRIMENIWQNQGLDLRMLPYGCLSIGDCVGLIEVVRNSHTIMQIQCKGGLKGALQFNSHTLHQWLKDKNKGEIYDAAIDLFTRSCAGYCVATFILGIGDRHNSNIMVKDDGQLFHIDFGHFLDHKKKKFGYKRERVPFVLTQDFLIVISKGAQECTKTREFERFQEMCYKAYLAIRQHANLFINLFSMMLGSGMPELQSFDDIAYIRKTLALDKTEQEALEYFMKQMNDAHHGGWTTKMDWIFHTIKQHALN
# Sequence (P27986 whole entry partner, species assumed): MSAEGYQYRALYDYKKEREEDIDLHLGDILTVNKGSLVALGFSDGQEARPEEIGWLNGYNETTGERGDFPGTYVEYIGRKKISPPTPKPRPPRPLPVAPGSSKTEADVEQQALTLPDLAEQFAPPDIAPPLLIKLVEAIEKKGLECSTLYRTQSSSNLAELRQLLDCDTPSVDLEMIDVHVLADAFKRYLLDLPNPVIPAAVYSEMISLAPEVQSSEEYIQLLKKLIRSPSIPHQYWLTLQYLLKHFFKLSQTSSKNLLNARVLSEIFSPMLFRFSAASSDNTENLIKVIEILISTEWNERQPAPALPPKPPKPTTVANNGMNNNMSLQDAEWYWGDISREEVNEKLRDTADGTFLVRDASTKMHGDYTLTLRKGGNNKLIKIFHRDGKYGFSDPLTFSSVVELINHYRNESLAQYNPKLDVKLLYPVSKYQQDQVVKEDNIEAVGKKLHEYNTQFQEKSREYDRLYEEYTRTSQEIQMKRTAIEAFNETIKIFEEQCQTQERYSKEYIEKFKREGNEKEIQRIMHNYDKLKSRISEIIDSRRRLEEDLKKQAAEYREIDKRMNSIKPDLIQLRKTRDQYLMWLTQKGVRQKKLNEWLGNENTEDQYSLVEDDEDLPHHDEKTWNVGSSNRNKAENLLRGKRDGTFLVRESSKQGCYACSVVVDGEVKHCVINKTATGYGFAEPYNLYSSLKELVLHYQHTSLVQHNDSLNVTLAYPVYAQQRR
# Protocol Summary: PI3K-α assay (ADP-Glo enzyme inhibition)
# Format: biochemical
# Test Context: at 500 nm; read-out: In vitro PI3K α % of inhibition
Would you kindly list inhibition at 0.5 µM for each of these molecules?

May I ask what inhibition at 0.5 µM has been recorded for COc1cccc(NC2CCN(c3nc(N4CCOCC4)nc(-n4c(C(F)F)nc5ccccc54)n3)CC2)c1 ?
> 70%

Give the measured inhibition at 0.5 µM of Cc1ccc(NC2CCN(c3nc(N4CCOCC4)nc(-n4c(C(F)F)nc5ccccc54)n3)CC2)cc1 .
50 to 70%

Requested field: inhibition at 0.5 µM. Item: O=C(N(C(=O)C(F)(F)F)c1nc(N2CCOCC2)nc(N2CCC(Oc3ccccc3F)CC2)n1)C(F)(F)F
> 70%

// inhibition at 0.5 µM lookup, key: COc1ccccc1NC1CCN(c2nc(N3CCOCC3)nc(-n3c(C(F)F)nc4ccccc43)n2)CC1
> 70%

Return reported inhibition at 0.5 µM; argument: FC(F)c1cc2ccccc2n1-c1nc(N2CCOCC2)nc(N2CCC(Nc3ccc(C(F)(F)F)cc3)CC2)n1
> 70%

Consider the molecule shown here: FC(F)(F)c1ccc(NC2CCN(c3nc(N4CCOCC4)nc(-n4cnc5ccccc54)n3)CC2)cc1 What is its recorded inhibition at 0.5 µM?
50 to 70%

What measured inhibition at 0.5 µM goes with COc1ccc(NC2CCN(c3nc(N4CCOCC4)nc(-n4c(C(F)F)nc5ccccc54)n3)CC2)cc1 ?
> 70%

Quick one: inhibition at 0.5 µM for Fc1cccc(OC2CCN(c3nc(N4CCOCC4)nc(-n4c(C(F)F)nc5ccccc54)n3)CC2)c1 ?
> 70%

====

# Measured On: PI3K alpha (Homo sapiens)
# Protocol Summary: PI3K-α assay (ADP-Glo enzyme inhibition)
# Type: biochemical
# Test Context: at 500 nm; read-out: In vitro PI3K α % of inhibition
# Protocol: Compounds were evaluated for their ability to inhibit class I PI3-kinase enzyme alpha as given below. PI3K-α Assay: PI3K alpha (diluted in 12.5 mM Glycine-NaOH (pH 8.5), 50 mM KCl, 2.5 mM MgCl2, 1 mM DTT, 0.05% CHAPS) is assayed in total volume of 20 ul containing 12.5 mM glycine-NaOH (pH 8.5), 50 mM KCl, 2.5 mM MgCl2, 1 mM DTT, 0.05% CHAPS, 0.01 mM ATP and 0.05 mM diC8 PIP2. […] The assays are incubated for 40 min and then read on PerkinElmer Envision for 1 sec/well.
Measured Attribute: inhibition at 0.5 µM

Given FC(F)(F)Oc1ccc(NC2CCN(c3nc(N4CCOCC4)nc(-n4cnc5ccccc54)n3)CC2)cc1 , state its recorded inhibition at 0.5 µM.
50 to 70%

# query: inhibition at 0.5 µM of entry FC(F)c1cc2ccccc2n1-c1nc(N2CCOCC2)nc(N2CCC(Nc3ccc(Cl)cc3)CC2)n1
50 to 70%

Which inhibition at 0.5 µM is reported for this molecule? CN(C(=O)C(F)(F)F)c1nc(N2CCOCC2)nc(N2CCC(Oc3ccccc3)CC2)n1
50 to 70%

Entry O=C(N(c1ccccc1)c1nc(N2CCOCC2)nc(N2CCC(Oc3ccccc3C(F)(F)F)CC2)n1)C(F)(F)F has what inhibition at 0.5 µM?
> 70%

I am curious: what inhibition at 0.5 µM value has been reported for FC(F)c1nc2ccccc2n1-c1nc(N2CCOCC2)nc(N2CCC(Oc3cccc(Cl)c3)CC2)n1 ?
50 to 70%

Reported inhibition at 0.5 µM for CN(c1ccccc1)c1nc(N2CCOCC2)nc(N2CCC(Oc3ccc(F)cc3)CC2)n1 : what is it?
50 to 70%

Look up inhibition at 0.5 µM: FC(F)(F)c1ccccc1OC1CCN(c2nc(N3CCOCC3)nc(-n3cnc4ccccc43)n2)CC1
50 to 70%

Entry under review: Fc1ccc(N(c2ccc(Cl)cc2)C2CCN(c3nc(N4CCOCC4)nc(-n4c(C(F)F)nc5ccccc54)n3)CC2)cc1 . Reported inhibition at 0.5 µM?
50 to 70%

Dear colleague, I am looking for the recorded inhibition at 0.5 µM of the following molecule: Cc1ccc(OC2CCN(c3nc(N(C)C)nc(N4CCOCC4)n3)CC2)cc1
50 to 70%

Please report the recorded inhibition at 0.5 µM for Cc1cccc(OC2CCN(c3nc(N4CCOCC4)nc(-n4c(C(F)F)nc5ccccc54)n3)CC2)c1 .
> 70%

Given Clc1ccccc1NC1CCN(c2nc(N3CCOCC3)nc(-n3cnc4ccccc43)n2)CC1 , state its recorded inhibition at 0.5 µM.
50 to 70%

Fill blank: measured inhibition at 0.5 µM of the molecule Clc1ccccc1OC1CCN(c2nc(N3CCOCC3)nc(-n3cnc4ccccc43)n2)CC1 is ____.
> 70%

Returns the measured inhibition at 0.5 µM for the input molecule. Input: O=C(N(c1ccc(F)cc1)c1nc(N2CCOCC2)nc(N2CCC(Oc3ccc(F)cc3)CC2)n1)C(F)(F)F
> 70%

# lookup: inhibition at 0.5 µM of c1ccc(OC2CCN(c3nc(N4CCOCC4)nc(N(c4ccccc4)c4ccccc4)n3)CC2)cc1
50 to 70%

Query: inhibition at 0.5 µM; subject: Cc1ccccc1OC1CCN(c2nc(N3CCOCC3)nc(-n3c(C(F)F)nc4ccccc43)n2)CC1
> 70%

Look at this molecule and give its reported inhibition at 0.5 µM. FC(F)c1nc2ccccc2n1-c1nc(N2CCOCC2)nc(N2CCC(Nc3ccccc3C(F)(F)F)CC2)n1
50 to 70%

Data request, read-out inhibition at 0.5 µM, for Cc1ccccc1NC1CCN(c2nc(N3CCOCC3)nc(-n3c(C(F)F)nc4ccccc43)n2)CC1
50 to 70%
